Can you tell me remaining activity at 1 µM for the items I'm about to list?
Molecular target: PKC (Homo sapiens)
Sequence (Q05513 1-592): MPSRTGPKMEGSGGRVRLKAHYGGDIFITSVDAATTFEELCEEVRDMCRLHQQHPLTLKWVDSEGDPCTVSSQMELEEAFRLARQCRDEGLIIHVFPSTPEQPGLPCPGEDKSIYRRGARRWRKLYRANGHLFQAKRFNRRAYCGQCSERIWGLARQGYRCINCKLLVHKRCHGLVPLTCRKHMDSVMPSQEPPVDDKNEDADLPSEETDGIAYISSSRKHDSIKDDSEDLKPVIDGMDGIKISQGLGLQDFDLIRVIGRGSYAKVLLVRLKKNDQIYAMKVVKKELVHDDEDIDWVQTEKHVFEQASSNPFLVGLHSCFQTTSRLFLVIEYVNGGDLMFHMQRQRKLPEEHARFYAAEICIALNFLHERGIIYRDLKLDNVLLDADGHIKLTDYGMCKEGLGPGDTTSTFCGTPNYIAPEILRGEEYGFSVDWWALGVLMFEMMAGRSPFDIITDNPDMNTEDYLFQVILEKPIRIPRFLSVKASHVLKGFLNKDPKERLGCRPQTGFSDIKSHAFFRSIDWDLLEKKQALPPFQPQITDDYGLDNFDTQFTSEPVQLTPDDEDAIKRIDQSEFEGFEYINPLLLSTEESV
Test: Kinase profiling (radiometric filter-binding)
Format: biochemical
Conditions: second of two PKC lines (Greek letter lost), 1 µM inhibitor, read-out: Residual activity, %
Square brackets hold non-standard residues; d marks the D form. Peptide text beside a SMILES is read from it. * marks the point of attachment. X3 = O=C(CCCCCNCc1nc2c(sc3cc(Br)cnc32)c(=O)[nH]1)*
# value in %; strip the unit string

# molecule N=C(N)NCCC[C@@H](NC(=O)CNC(=O)[C@@H](CCCNC(=N)N)NC(=O)[C@@H](CCCNC(=N)N)NC(=O)CCCCCCCNCc1nc2c(sc3ccc(Br)cc32)c(=O)[nH]1)C(=O)N[C@H](CCCCN)C(N)=O ; its remaining activity at 1 µM = 118

Short answer for N=C(N)NCCC[C@@H](NC(=O)CNC(=O)[C@@H](CCCNC(=N)N)NC(=O)[C@@H](CCCNC(=N)N)NC(=O)Cn1cc(CNCc2nc3c(sc4ccc(Br)cc43)c(=O)[nH]2)nn1)C(=O)N[C@H](CCCCN)C(N)=O : remaining activity at 1 µM was 89

Item: N=C(N)NCCC[C@@H](NC(=O)CCCCCNCc1nc2c(sc3cc(Br)cnc32)c(=O)[nH]1)C(=O)N[C@H](CCCNC(=N)N)C(=O)N[C@H](CCCNC(=N)N)C(=O)N[C@H](CCCNC(=N)N)C(=O)N[C@H](CCCNC(=N)N)C(=O)N[C@H](CCCNC(=N)N)C(=O)N[C@H](CCCCN)C(N)=O [ARC-3126, BPTP-Ahx-(D-Arg)6-D-Lys-NH2] (X3-[dR][dR][dR][dR][dR][dR][dK]-NH2) | remaining activity at 1 µM: 92

Value of measured remaining activity at 1 µM for the entry N=C(N)NCCC[C@@H](NC(=O)CNC(=O)[C@@H](CCCNC(=N)N)NC(=O)[C@@H](CCCNC(=N)N)NC(=O)CCCCCCCNCc1nc2c(sc3cc(Br)cnc32)c(=O)[nH]1)C(=O)N[C@H](CCCCN)C(N)=O : 95

Record N=C(N)NCCC[C@@H](NC(=O)CCCCCNC(=O)Cn1cnc2c(I)c(I)c(I)c(I)c21)C(=O)N[C@H](CCCNC(=N)N)C(=O)N[C@H](CCCNC(=N)N)C(=O)N[C@H](CCCNC(=N)N)C(=O)N[C@H](CCCNC(=N)N)C(=O)N[C@H](CCCNC(=N)N)C(=O)N[C@H](CCCCN)C(N)=O . Reported remaining activity at 1 µM: 14

###

target: MNK2 (Homo sapiens); assay: Kinase profiling (radiometric filter-binding); type: biochemical; details: MNK2, 1 µM inhibitor; read-out: Residual activity, %
Sequence (Q9HBH9 whole entry): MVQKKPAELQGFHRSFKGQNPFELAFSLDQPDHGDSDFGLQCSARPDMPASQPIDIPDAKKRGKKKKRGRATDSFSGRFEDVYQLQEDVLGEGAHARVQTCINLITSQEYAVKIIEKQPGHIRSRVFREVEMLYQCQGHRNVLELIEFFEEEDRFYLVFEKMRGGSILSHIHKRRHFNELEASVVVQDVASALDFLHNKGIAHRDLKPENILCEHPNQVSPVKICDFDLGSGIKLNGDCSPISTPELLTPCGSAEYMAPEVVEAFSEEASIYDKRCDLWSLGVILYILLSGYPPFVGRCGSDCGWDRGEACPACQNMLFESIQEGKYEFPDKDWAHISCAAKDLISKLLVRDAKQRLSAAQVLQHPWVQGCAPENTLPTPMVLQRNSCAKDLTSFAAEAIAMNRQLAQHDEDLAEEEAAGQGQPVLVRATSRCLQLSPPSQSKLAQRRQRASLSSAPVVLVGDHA
Answer each item with its documented remaining activity at 1 µM.
Return type: number; implicit unit %.

According to the records, this compound N=C(N)NCCC[C@@H](NC(=O)CNC(=O)[C@@H](CCCNC(=N)N)NC(=O)[C@@H](CCCNC(=N)N)NC(=O)CCCCCCCNCc1nc2c(sc3cc(Br)cnc32)c(=O)[nH]1)C(=O)N[C@H](CCCCN)C(N)=O displays remaining activity at 1 µM of 80

The compound listed as N=C(N)NCCC[C@@H](NC(=O)CNC(=O)[C@@H](CCCNC(=N)N)NC(=O)[C@@H](CCCNC(=N)N)NC(=O)CCCCCCCNCc1nc2c(sc3ccc(Br)cc32)c(=O)[nH]1)C(=O)N[C@H](CCCCN)C(N)=O shows remaining activity at 1 µM equal to 47

###

target: MINK1 (Homo sapiens); experiment: Kinase profiling (radiometric filter-binding); format: biochemical; details: MINK1, 1 µM inhibitor; read-out: Residual activity, %
Sequence (Q8N4C8 whole entry): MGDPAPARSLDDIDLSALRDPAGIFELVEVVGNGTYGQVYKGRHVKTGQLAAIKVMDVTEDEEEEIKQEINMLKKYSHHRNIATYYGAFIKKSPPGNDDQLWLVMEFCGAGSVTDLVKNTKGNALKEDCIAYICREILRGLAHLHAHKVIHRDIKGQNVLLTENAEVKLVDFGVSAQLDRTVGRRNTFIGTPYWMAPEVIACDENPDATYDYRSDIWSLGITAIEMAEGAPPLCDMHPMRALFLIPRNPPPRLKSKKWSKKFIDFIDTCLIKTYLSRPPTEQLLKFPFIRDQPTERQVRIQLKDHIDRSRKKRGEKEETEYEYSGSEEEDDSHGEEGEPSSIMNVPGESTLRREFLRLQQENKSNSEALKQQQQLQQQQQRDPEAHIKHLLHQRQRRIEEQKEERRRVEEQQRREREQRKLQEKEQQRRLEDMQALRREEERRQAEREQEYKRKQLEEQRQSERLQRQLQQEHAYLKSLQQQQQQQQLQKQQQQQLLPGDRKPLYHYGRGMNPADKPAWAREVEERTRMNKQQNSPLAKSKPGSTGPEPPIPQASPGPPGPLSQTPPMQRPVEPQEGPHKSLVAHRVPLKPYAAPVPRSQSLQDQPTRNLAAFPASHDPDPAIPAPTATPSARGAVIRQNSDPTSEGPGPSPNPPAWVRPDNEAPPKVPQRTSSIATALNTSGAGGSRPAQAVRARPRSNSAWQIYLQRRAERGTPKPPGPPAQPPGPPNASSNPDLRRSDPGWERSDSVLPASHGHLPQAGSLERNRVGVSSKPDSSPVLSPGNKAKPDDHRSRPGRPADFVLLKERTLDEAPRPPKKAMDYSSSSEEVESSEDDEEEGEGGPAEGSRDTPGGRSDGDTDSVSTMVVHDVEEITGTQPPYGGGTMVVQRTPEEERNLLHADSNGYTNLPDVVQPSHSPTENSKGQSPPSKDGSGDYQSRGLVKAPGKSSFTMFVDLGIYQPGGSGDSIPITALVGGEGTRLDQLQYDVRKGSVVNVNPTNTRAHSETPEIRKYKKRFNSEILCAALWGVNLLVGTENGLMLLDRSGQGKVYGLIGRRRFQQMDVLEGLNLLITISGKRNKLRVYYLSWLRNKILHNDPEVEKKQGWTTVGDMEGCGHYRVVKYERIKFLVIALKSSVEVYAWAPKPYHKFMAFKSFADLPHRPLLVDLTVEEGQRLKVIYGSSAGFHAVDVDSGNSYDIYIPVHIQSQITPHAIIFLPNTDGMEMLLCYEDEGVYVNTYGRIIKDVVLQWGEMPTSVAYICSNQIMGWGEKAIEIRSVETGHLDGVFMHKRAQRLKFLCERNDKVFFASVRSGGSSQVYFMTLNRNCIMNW
Square brackets hold non-standard residues; d marks the D form. Peptide text beside a SMILES is read from it. * marks the point of attachment. X3 = O=C(CCCCCNCc1nc2c(sc3cc(Br)cnc32)c(=O)[nH]1)*
Please go through the items and note down their remaining activity at 1 µM.
Record the result as a number with its unit.

Record N=C(N)NCCC[C@@H](NC(=O)CNC(=O)[C@@H](CCCNC(=N)N)NC(=O)[C@@H](CCCNC(=N)N)NC(=O)CCCCCCCNCc1nc2c(sc3cc(Br)cnc32)c(=O)[nH]1)C(=O)N[C@H](CCCCN)C(N)=O . Reported remaining activity at 1 µM: 129%

Measured remaining activity at 1 µM of N=C(N)NCCC[C@@H](NC(=O)CNC(=O)[C@@H](CCCNC(=N)N)NC(=O)[C@@H](CCCNC(=N)N)NC(=O)CCCCCCCNCc1nc2c(sc3ccc(Br)cc32)c(=O)[nH]1)C(=O)N[C@H](CCCCN)C(N)=O : 106%

N=C(N)NCCC[C@@H](NC(=O)CCCCCNCc1nc2c(sc3cc(Br)cnc32)c(=O)[nH]1)C(=O)N[C@H](CCCNC(=N)N)C(=O)N[C@H](CCCNC(=N)N)C(=O)N[C@H](CCCNC(=N)N)C(=O)N[C@H](CCCNC(=N)N)C(=O)N[C@H](CCCNC(=N)N)C(=O)N[C@H](CCCCN)C(N)=O [ARC-3126, BPTP-Ahx-(D-Arg)6-D-Lys-NH2] (X3-[dR][dR][dR][dR][dR][dR][dK]-NH2) has a reported remaining activity at 1 µM of 104%

Note to self: remaining activity at 1 µM recorded for N=C(N)NCCC[C@@H](NC(=O)CCCCCNC(=O)Cn1cnc2c(I)c(I)c(I)c(I)c21)C(=O)N[C@H](CCCNC(=N)N)C(=O)N[C@H](CCCNC(=N)N)C(=O)N[C@H](CCCNC(=N)N)C(=O)N[C@H](CCCNC(=N)N)C(=O)N[C@H](CCCNC(=N)N)C(=O)N[C@H](CCCCN)C(N)=O was 86%

So, N=C(N)NCCC[C@@H](NC(=O)CNC(=O)[C@@H](CCCNC(=N)N)NC(=O)[C@@H](CCCNC(=N)N)NC(=O)Cn1cc(CNCc2nc3c(sc4ccc(Br)cc43)c(=O)[nH]2)nn1)C(=O)N[C@H](CCCCN)C(N)=O ? Its remaining activity at 1 µM was 133%

###

What remaining activity at 1 µM was measured for each of the following?
target: DAPK1 (Homo sapiens); test: Kinase profiling (radiometric filter-binding); type: biochemical; details: DAPK1, 1 µM inhibitor; read-out: Residual activity, %
Sequence (P53355 whole entry): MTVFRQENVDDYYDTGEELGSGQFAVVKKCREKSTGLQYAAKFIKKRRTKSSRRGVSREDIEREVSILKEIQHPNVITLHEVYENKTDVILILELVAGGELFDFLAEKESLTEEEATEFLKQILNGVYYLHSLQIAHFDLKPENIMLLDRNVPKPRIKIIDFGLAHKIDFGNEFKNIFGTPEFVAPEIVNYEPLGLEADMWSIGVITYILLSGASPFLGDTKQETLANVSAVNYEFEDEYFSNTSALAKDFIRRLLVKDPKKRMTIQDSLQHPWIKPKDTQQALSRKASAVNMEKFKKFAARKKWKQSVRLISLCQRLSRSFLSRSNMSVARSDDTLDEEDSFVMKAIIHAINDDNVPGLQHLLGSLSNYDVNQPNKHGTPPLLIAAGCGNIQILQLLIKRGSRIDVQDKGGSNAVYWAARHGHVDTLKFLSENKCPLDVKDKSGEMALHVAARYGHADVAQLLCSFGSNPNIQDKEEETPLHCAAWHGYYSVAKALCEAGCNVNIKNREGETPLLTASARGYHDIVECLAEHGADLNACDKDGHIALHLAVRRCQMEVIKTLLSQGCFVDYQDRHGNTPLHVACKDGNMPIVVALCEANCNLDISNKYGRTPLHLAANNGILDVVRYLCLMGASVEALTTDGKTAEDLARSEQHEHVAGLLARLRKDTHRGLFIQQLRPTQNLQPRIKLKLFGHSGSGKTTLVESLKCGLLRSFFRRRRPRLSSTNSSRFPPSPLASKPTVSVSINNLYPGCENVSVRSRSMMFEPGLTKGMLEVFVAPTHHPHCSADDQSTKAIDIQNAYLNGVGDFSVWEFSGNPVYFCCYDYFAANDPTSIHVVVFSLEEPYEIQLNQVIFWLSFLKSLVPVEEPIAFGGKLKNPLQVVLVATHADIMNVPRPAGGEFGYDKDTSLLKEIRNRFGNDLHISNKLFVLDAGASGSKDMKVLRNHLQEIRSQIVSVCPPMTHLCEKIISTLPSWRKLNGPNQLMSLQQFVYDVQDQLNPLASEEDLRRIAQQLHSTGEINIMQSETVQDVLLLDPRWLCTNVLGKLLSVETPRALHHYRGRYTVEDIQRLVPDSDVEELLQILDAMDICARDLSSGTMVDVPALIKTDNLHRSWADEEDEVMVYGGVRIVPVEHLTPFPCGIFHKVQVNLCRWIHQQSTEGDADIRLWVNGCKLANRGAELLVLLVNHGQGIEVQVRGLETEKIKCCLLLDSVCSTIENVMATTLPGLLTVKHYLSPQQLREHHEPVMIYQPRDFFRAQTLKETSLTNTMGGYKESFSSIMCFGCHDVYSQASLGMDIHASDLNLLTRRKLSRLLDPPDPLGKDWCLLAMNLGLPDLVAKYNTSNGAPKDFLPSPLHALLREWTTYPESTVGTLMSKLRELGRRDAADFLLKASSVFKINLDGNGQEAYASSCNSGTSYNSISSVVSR
Square brackets hold non-standard residues; d marks the D form. Peptide text beside a SMILES is read from it. * marks the point of attachment. X3 = O=C(CCCCCNCc1nc2c(sc3cc(Br)cnc32)c(=O)[nH]1)*
Lab book: enter the figure in %, no units written.

Record N=C(N)NCCC[C@@H](NC(=O)CCCCCNC(=O)Cn1cnc2c(I)c(I)c(I)c(I)c21)C(=O)N[C@H](CCCNC(=N)N)C(=O)N[C@H](CCCNC(=N)N)C(=O)N[C@H](CCCNC(=N)N)C(=O)N[C@H](CCCNC(=N)N)C(=O)N[C@H](CCCNC(=N)N)C(=O)N[C@H](CCCCN)C(N)=O ; system DAPK1 (Homo sapiens); remaining activity at 1 µM = 18

N=C(N)NCCC[C@@H](NC(=O)CCCCCNCc1nc2c(sc3cc(Br)cnc32)c(=O)[nH]1)C(=O)N[C@H](CCCNC(=N)N)C(=O)N[C@H](CCCNC(=N)N)C(=O)N[C@H](CCCNC(=N)N)C(=O)N[C@H](CCCNC(=N)N)C(=O)N[C@H](CCCNC(=N)N)C(=O)N[C@H](CCCCN)C(N)=O [ARC-3126, BPTP-Ahx-(D-Arg)6-D-Lys-NH2] (X3-[dR][dR][dR][dR][dR][dR][dK]-NH2) tested on DAPK1 (Homo sapiens) gave remaining activity at 1 µM: 49

For N=C(N)NCCC[C@@H](NC(=O)CNC(=O)[C@@H](CCCNC(=N)N)NC(=O)[C@@H](CCCNC(=N)N)NC(=O)CCCCCCCNCc1nc2c(sc3ccc(Br)cc32)c(=O)[nH]1)C(=O)N[C@H](CCCCN)C(N)=O on DAPK1 (Homo sapiens), measured remaining activity at 1 µM was 60
